Reported melting point values follow for various molecules

See these solved cases before continuing.
[
  {
    "molecule": "N#CCCNC(=O)c1cccc(-c2ccc3c(c2)N(c2cccc(Cl)c2Cl)CC3)c1",
    "melting point": "155 to 156 °C"
  },
  {
    "molecule": "O=C(O)CC1=CC2(Cc3ccc(Br)cc3)C(=O)N(c3cc(Cl)cc(Cl)c3)C(=O)N2C1 (centres undefined)",
    "melting point": "102 °C"
  },
  {
    "molecule": "COc1ccc(CC(=O)N2CCN(C(=S)SC)CC2)c(OC)c1OC",
    "melting point": "119 to 120 °C"
  },
  {
    "molecule": "COc1cc(OC)cc(C(=O)NCC23CC4CC(CC(C4)C2)C3)c1",
    "melting point": "130 to 133 °C"
  },
  {
    "molecule": "O=C(Nc1c([N+](=O)[O-])cnn1-c1c(Cl)cc(C(F)(F)F)c(Cl)c1Cl)C(F)F",
    "melting point": "146 to 151 °C"
  },
  {
    "molecule": "CNc1nc(OC(F)F)cc(OC(F)F)n1",
    "melting point": "54 to 55 °C"
  },
  {
    "molecule": "CC(CO)(CO)NS(=O)(=O)c1cc([N+](=O)[O-])c(Cl)s1",
    "melting point": "133 °C"
  },
  {
    "molecule": "O=C(O)C1CC1c1cc(=O)c2cc(-c3ccccc3)ccc2o1 (centres undefined)",
    "melting point": "226 to 228 °C"
  },
  {
    "molecule": "N#Cc1ccc(-c2ccc(N3CCCNC3=O)cc2)cc1",
    "melting point": "> 200 °C"
  },
  {
    "molecule": "CCNC(=O)Nc1cc(-c2c(-c3ccc(F)c(C)c3)nc3cc(C(C)(C)C)c(Cl)nn23)ccn1",
    "melting point": "246 to 247 °C"
  }
]

I'd like to know its melting point. The molecule in question is COc1ccc2c(c1)C(c1ccccc1)N(S(C)(=O)=O)N=C2Cc1c(Cl)cncc1Cl (centres undefined)
223 to 224 °C

I'd like to know its melting point. The molecule in question is CC(=O)Oc1cccc(C(=O)N[C@@H](Cc2ccccc2)[C@H](OC(C)=O)C(=O)O)c1C
152 to 154 °C

I'd like to know its melting point. The molecule in question is COc1cc(OC)c2c(=O)[nH]c(-c3cccc(N4CCN(CC(C)C)CC4)n3)nc2c1
188 to 189 °C

I'd like to know its melting point. The molecule in question is CCOC(=O)C1=C(C)NC(CO)=C(C(=O)OCC)C1c1cccc([N+](=O)[O-])c1 (centres undefined)
141 to 142 °C

I'd like to know its melting point. The molecule in question is COc1cc(C(=O)c2cccs2)cc(OC)c1OC
83 °C

----------
Reported melting point values follow for various compounds

See these solved cases before continuing.
[
  {
    "compound": "Cc1nc(N)c2nc(C)n(NC(C)C)c2c1C",
    "result": "203 to 205 °C"
  },
  {
    "compound": "O=C1c2c(Cl)c(Cl)c(Cl)c(Cl)c2C(=O)N1c1ccccc1",
    "result": "251 to 253 °C"
  },
  {
    "compound": "CN1CCN(c2ncnc3c([N+](=O)[O-])cccc23)C1=O",
    "result": "207 to 210 °C"
  },
  {
    "compound": "CN1C(=O)c2c(Oc3ccccc3O)cc3[nH]c4cc(O)ccc4c3c2C1=O",
    "result": "200 °C"
  },
  {
    "compound": "Nc1ncc(-c2ccccc2-c2ncccn2)c(N)n1",
    "result": "95.1 °C"
  },
  {
    "compound": "Cc1ccc(NC(=O)c2c(Cl)cccc2Cl)c2nccc(-n3ccnc3)c12",
    "result": "236 °C"
  },
  {
    "compound": "Cc1cc(-c2[nH]c3c([N+](=O)[O-])cccc3c2C)cc(C)c1O",
    "result": "178 to 179 °C"
  },
  {
    "compound": "OC(CCN1CCN(c2ccccn2)CC1)COc1ccc(F)cc1 (stereo unspecified)",
    "result": "72 to 73 °C"
  },
  {
    "compound": "CC1(C(Cl)(Cl)Cl)C=CC(=O)C=C1",
    "result": "103 °C"
  },
  {
    "compound": "CCCNC(=O)Nc1nn(Cc2ccccc2)cc1C(=O)OCC",
    "result": "100 to 101 °C"
  }
]

Now look at this entry.
I'd like to know its melting point. The compound in question is Cc1cccc(C(=O)Nc2nc(=O)c3ccccc3n2C)c1
266 to 269 °C
